I'd be grateful if you could share measured pIC50 for these entries.
- measurement_target: Human PD-L1/PD-1 (Homo sapiens, UniProt Q9NZQ7)
- Construct: TVMV protease cleavage site (C); made in house; host or cells: HEK293T cells
- Sequence (Q9NZQ7 with tags, fused parts or gaps): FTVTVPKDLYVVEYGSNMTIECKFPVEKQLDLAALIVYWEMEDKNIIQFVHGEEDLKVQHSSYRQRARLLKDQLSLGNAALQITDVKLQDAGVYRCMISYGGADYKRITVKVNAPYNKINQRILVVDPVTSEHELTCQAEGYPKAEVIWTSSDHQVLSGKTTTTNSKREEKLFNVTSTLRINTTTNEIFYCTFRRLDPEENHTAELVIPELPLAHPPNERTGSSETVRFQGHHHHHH
- experiment_description: HTRF Human PD-L1/PD-1 binding assay (PD-1-Ig/PD-L1-His)
- assay_setup: PD-L1-His 10 nM, PD-1-Ig 20 nM; class symbol; read-out: HTRF Human PD-L1/PD-1 Binding Assay IC50 Range
pIC50: −log10 of the molar value. Where a SMILES comes first, the peptide text is derived from it. Bridges are numbered along the chain shown (N, C = ends). [ ]: non-standard residue; d: D form. ξ: configuration not given here. Bta = N[C@@H](Cc1csc2ccccc12)C(=O)O; Hyp = O=C(O)[C@@H]1C[C@@H](O)CN1; NMeNle = CCCC[C@H](NC)C(=O)O; NMeA = CN[C@@H](C)C(=O)O; Dab = NCC[C@H](N)C(=O)O; ξC = NC(CS)C(=O)O

- compound: "CCCC[C@H]1C(=O)N(C)[C@@H](CCCC)C(=O)N[C@@H](CCN)C(=O)NC(C(=O)NCC(N)=O)CSCC(=O)N[C@@H](Cc2ccc(O)cc2)C(=O)N(C)[C@@H](C)C(=O)N[C@@H](CC(N)=O)C(=O)N2CCC[C@H]2C(=O)N[C@@H](CC(N)=O)C(=O)N[C@@H](CC(C)C)C(=O)N2C[C@H](O)C[C@H]2C(=O)N[C@@H](Cc2c[nH]c3ccccc23)C(=O)N[C@@H](CO)C(=O)N[C@@H](Cc2c[nH]c3ccccc23)C(=O)N1C (some centres unmarked) [Example 9164] ({CH2CO}-Y[NMeA]NPNL[Hyp]WSW[NMeNle][NMeNle][Dab][ξC]G-NH2; thioether N-14)"
  pIC50: "8.00 to 9.00"

Ask: Respond only with pIC50 recorded for CCCC[C@H]1C(=O)N(C)[C@@H](CCCC)C(=O)N[C@@H](CCCNC(=N)N)C(=O)NC(C(=O)NCC(N)=O)CSCC(=O)N[C@@H](Cc2ccc(O)cc2)C(=O)N(C)[C@@H](C)C(=O)N[C@@H](Cc2cnc[nH]2)C(=O)N2CCC[C@H]2C(=O)N[C@@H](CC(N)=O)C(=O)N[C@@H](CC(C)C)C(=O)N2CCC[C@H]2C(=O)N[C@@H](Cc2c[nH]c3ccccc23)C(=O)N[C@@H](CO)C(=O)N[C@@H](Cc2csc3ccccc23)C(=O)N1C (some centres unmarked) [Example 9145] ({CH2CO}-Y[NMeA]HPNLPWS[Bta][NMeNle][NMeNle]R[ξC]G-NH2; thioether N-14)
Result: 8.00 to 9.00

* * *

- measurement_target: Human PD-L1/PD-1 (Homo sapiens)
- Construct: TVMV protease cleavage site (C); made in house; host or cells: HEK293T cells
- experiment_description: HTRF Human PD-L1/PD-1 binding assay (PD-1-Ig/PD-L1-His)
- assay_setup: PD-L1-His 10 nM, PD-1-Ig 20 nM; class symbol; read-out: HTRF Human PD-L1/PD-1 Binding Assay IC50 Range
pIC50: −log10 of the molar value. Where a SMILES comes first, the peptide text is derived from it. Bridges are numbered along the chain shown (N, C = ends). [ ]: non-standard residue; d: D form. Hyp = O=C(O)[C@@H]1C[C@@H](O)CN1; NMeNle = CCCC[C@H](NC)C(=O)O; NMeA = CN[C@@H](C)C(=O)O
observable: pIC50

Ask: Look up and report measured pIC50 (Human PD-L1/PD-1 (Homo sapiens)) for the following compound: CCCC[C@H]1C(=O)N(C)[C@@H](CCCC)C(=O)N[C@@H](CCC(=O)O)C(=O)N[C@H](C(=O)NCC(N)=O)CSCC(=O)N[C@@H](Cc2ccc(O)cc2)C(=O)N(C)[C@@H](C)C(=O)N[C@@H](CC(=O)O)C(=O)N2CCC[C@H]2C(=O)N[C@@H](CO)C(=O)N[C@@H](CC(C)C)C(=O)N2C[C@H](O)C[C@H]2C(=O)N[C@@H](Cc2c[nH]c3ccccc23)C(=O)N[C@@H](CCC(=O)O)C(=O)N[C@@H](Cc2c[nH]c3ccccc23)C(=O)N1C [Example 5254] ({CH2CO}-Y[NMeA]DPSL[Hyp]WEW[NMeNle][NMeNle]ECG-NH2; thioether N-14)
Result: 7.00 to 8.00

* * *

- measurement_target: Human PD-L1/PD-1 (Homo sapiens, UniProt Q9NZQ7)
- Construct: TVMV protease cleavage site (C); made in house; host or cells: HEK293T cells
- experiment_description: HTRF Human PD-L1/PD-1 binding assay (PD-1-Ig/PD-L1-His)
- assay_setup: PD-L1-His 10 nM, PD-1-Ig 20 nM; class symbol; read-out: HTRF Human PD-L1/PD-1 Binding Assay IC50 Range
- Description: Methods for Testing the Ability of Macrocyclic Peptides to Compete for the Binding of PD-1 to PD-L1 Using Homogenous Time-Resolved Fluorescence (HTRF) Binding Assays The ability of the macrocyclic peptides of the present disclosure to bind to PD-L1 was investigated using a PD-1/PD-L1 Homogenous Time-Resolved Fluorescence (HTRF) binding assay. Homogenous Time-Resolved Fluorescence (HTRF) Assays of Binding of Soluble PD-1 to Soluble PD-L1. […]
Where a SMILES comes first, the peptide text is derived from it. Bridges are numbered along the chain shown (N, C = ends). [ ]: non-standard residue; d: D form. ξ: configuration not given here. Phe(4-F) = N[C@@H](Cc1ccc(F)cc1)C(=O)O; Bta = N[C@@H](Cc1csc2ccccc12)C(=O)O; Hyp = O=C(O)[C@@H]1C[C@@H](O)CN1; NMeF = CN[C@@H](Cc1ccccc1)C(=O)O; NMeNle = CCCC[C@H](NC)C(=O)O; dNle = CCCC[C@@H](N)C(=O)O; hSer = N[C@@H](CCO)C(=O)O; NMeA = CN[C@@H](C)C(=O)O; Orn = NCCC[C@H](N)C(=O)O; ξC = NC(CS)C(=O)O
observable: IC50

Solved entries (count: 2):
- molecule: "CCCC[C@H]1C(=O)N(C)CC(=O)N[C@@H](CC(=O)O)C(=O)NC(C(C)c2ccccc2)C(=O)N(C)[C@@H](Cc2ccccc2)C(=O)N[C@@H](Cc2ccc(O)cc2)C(=O)N(C)CC(=O)N[C@@H](Cc2c[nH]c3ccccc23)C(=O)N[C@@H](Cc2ccc(O)cc2)C(=O)N[C@@H](CC(C)C)C(=O)N[C@H](C(=O)NCC(N)=O)CSCC(=O)N[C@@H](Cc2ccccc2)C(=O)N(C)[C@@H](Cc2ccccc2)C(=O)N1C (single isomer, unassigned) [Example 3230-B]"
  measurement_target: "Human PD-L1/PD-1 (Homo sapiens, UniProt Q9NZQ7)"
  observable: "IC50"
  observed_measurement: "100 to 990 nM"
- molecule: "CCCC[C@H]1NC(=O)[C@H](Cc2csc3ccccc23)NC(=O)[C@H](CO)NC(=O)[C@H](Cc2c[nH]c3ccccc23)NC(=O)[C@@H]2C[C@@H](O)CN2C(=O)[C@H](CC(C)C)NC(=O)[C@H](Cc2cnc[nH]2)NC(=O)[C@@H]2CCCN2C(=O)[C@H](CC(N)=O)NC(=O)[C@H](C)N(C)C(=O)[C@H](Cc2ccc(O)cc2)NC(=O)CSCC(C(=O)NCC(N)=O)NC(=O)[C@H](CCCNC(=N)N)NC(=O)[C@H](CCCC)N(C)C1=O (stereo partly shown) [Example 10123] ({CH2CO}-Y[NMeA]NPHL[Hyp]WS[Bta][dNle][NMeNle]R[ξC]G-NH2; thioether N-14)"
  measurement_target: "Human PD-L1/PD-1 (Homo sapiens, UniProt Q9NZQ7)"
  observable: "IC50"
  observed_measurement: "100 to 990 nM"

Quick one: give me IC50 for each item below, same order please.
1. CCCC[C@H]1C(=O)N2CCC[C@@H]2C(=O)N[C@@H](CC(=O)O)C(=O)N[C@@H](C(C)C)C(=O)N(C)[C@@H](Cc2ccccc2)C(=O)N[C@@H](CCCN)C(=O)N2CCC[C@@H]2C(=O)N[C@@H](Cc2c[nH]c3ccccc23)C(=O)N[C@@H](Cc2ccc(O)cc2)C(=O)N[C@@H](CC(C)C)C(=O)N[C@H](C(=O)NCC(N)=O)CSCC(=O)N[C@@H](Cc2ccc(F)cc2)C(=O)N(C)[C@@H](Cc2ccccc2)C(=O)N1C [Example 10102] ({CH2CO}-[Phe(4-F)][NMeF][NMeNle][dP]DV[NMeF][Orn][dP]WYLCG-NH2; thioether N-13)
2. CCCC[C@H]1C(=O)N[C@@H](CC(N)=O)C(=O)N2CCC[C@H]2C(=O)N[C@@H](CO)C(=O)N[C@@H](CCO)C(=O)N2CCC[C@H]2C(=O)N[C@@H](Cc2c[nH]c3ccccc23)C(=O)N[C@@H](CO)C(=O)N[C@@H](Cc2c[nH]c3ccccc23)C(=O)N(C)[C@@H](C)C(=O)N(C)[C@@H](C)C(=O)N[C@@H](CCCN)C(=O)NC(C(=O)NCC(N)=O)CSCC(=O)N[C@@H](Cc2ccc(O)cc2)C(=O)N1C (stereo partly shown) [Example 10210] ({CH2CO}-Y[NMeNle]NPS[hSer]PWSW[NMeA][NMeA][Orn][ξC]G-NH2; thioether N-14)

Result:
1 to 9.9 nM
1000 to 10000 nM
